Hello, the source for this data is PubChem BioAssay (NCI), in case you need it.

# System: DU-145 prostate
# ASSAY OVERVIEW: NCI-60 one-dose screen, 48 h
# EXPERIMENTAL CONTEXT: 10 µM unless noted
The panel holds about 83,000 compounds, 20% with a hit somewhere; the sample as a whole holds those more often. Calls of active or inactive are those of the source. The calls were made as follows: active = growth percent below 10; inactive = the rest.
Please answer using one outcome listed in active, inactive

# count of solved cases: 2
Clc1cccc(NCOOC2(OOCNc3cccc(Cl)c3)CCCCC2)c1; inactive
CCn1cnc2c(Nc3cccc(Cl)c3)nc(N[C@@H]3CCCC[C@@H]3N)nc21; active

Query: Look up the recorded call for CC(C)=CC1C(C(=O)OCc2cccc(Oc3ccccc3)c2)C1(C)C (centres undefined) in this test.
Response: inactive

Query: Look up the recorded call for `Cc1cc(-c2nc3cc(F)ccc3[se]2)cc(F)c1N` in this test.
Response: inactive
